Hi there, I'd appreciate the recorded remaining activity at 0.02 µM for every entry that follows.
Biological target: PLpro from SARS-CoV-2 (Severe acute respiratory syndrome coronavirus 2, UniProt P0DTD1)
Experiment: biochemical
Assay type: biochemical
Conditions: 0.5 h, inhibitor 0.02 uM
Answers are plain numbers, in %.

Worked set:
> print(dat)
                               entry.smiles  unit.annotation  experimental.value
1     Cc1ccccc1C(=O)N[C@H](C)c1cccc2ccccc12                %                96.3
2  C[C@@H](NC(=O)c1ccccc1CCC(=O)NNC(=O)CC#N)c1cccc2ccccc12                %                84.4
3  CC(=O)Nc1ccc(CCC(=O)NNC(=O)CCl)c(C(=O)N[C@H](C)c2cccc3ccccc23)c1                %                90.3

Let us examine a further case.
The compound identified as CC(=O)Nc1ccc(C)c(C(=O)N[C@H](C)c2cccc3ccccc23)c1 registered its remaining activity at 0.02 µM at 115

* * *

Assay: in vitro
Conditions: human
metric: CC50

The compound identified as COC(=O)/C=C/C(=O)NNC(=O)CCc1ccccc1C(=O)N[C@H](C)c1cccc2ccccc12 registered its CC50 at > 10 µM

* * *

Test: in vitro
Details: African green monkey, cytotoxicity, %cell viability
metric: viability at 8.33 µM (%)
One number for each entry, in %.

The molecule identified as Cc1ccc(N)cc1C(=O)N[C@H](C)c1cccc2ccccc12 [GRL0617, reference compound] registered its viability at 8.33 µM at 93.3

* * *

Tested on: SARS-CoV-2 isolate USA-WA1/2020
Assay: microbe, parasite or virus in culture
Settings: Severe acute respiratory syndrome coronavirus 2, Vero C1008, read-out: cytopathic effect, % cell viability, [inhibitor] 2.08 uM; duplicate wells
Hi there, I'd appreciate the recorded inhibition at 2.08 µM for every entry that follows.
One number for each entry, in %.

Worked set:
> print(dat)
                               entry.smiles                 metric  unit.annotation  experimental.value
1  COC(=O)CCc1ccccc1C(=O)N[C@H](C)c1cccc2ccccc12  inhibition at 2.08 µM                %                7.81
2  C[C@@H](NC(=O)c1ccccc1CCC(=O)NNC(=O)CCl)c1cccc2ccccc12  inhibition at 2.08 µM                %                10.7
3  C[C@@H](NC(=O)c1ccccc1CCC(=O)NNC(=O)CC#N)c1cccc2ccccc12  inhibition at 2.08 µM                %                   8

Record inhibition at 2.08 µM for all entries; do not skip any.
1. COC(=O)/C=C/C(=O)NNC(=O)CCc1ccc(NC(C)=O)cc1C(=O)N[C@H](C)c1cccc2ccccc12
2. COC(=O)/C=C/C(=O)NNC(=O)CCc1ccccc1C(=O)N[C@H](C)c1cccc2ccccc12
3. Cc1ccccc1C(=O)N[C@H](C)c1cccc2ccccc12
4. C[C@@H](NC(=O)c1ccccc1CCC(=O)NN)c1cccc2ccccc12
5. CC(=O)Nc1ccc(CCC(=O)NNC(=O)CCl)c(C(=O)N[C@H](C)c2cccc3ccccc23)c1

Output:
1.22
80.5
11.3
11.2
2.2
